# System: carbapenemase producing K. pneumoniae
# TEST: MIC by broth micro-dilution (CLSI), carbapenemase producing K. pneumoniae
# Format: cell-based, Klebsiella pneumoniae
# EXPERIMENTAL_CONDITIONS: Klebsiella pneumoniae, ATCCBAA1705, KPC-2 K. pneumoniae ATCC BAA-1705; read-out: MIC
MIC reference
I only need the number, in µg/mL, no unit after it.

>  <COMPOUND>
C[C@@H](NC(=O)Cn1cnnn1)[C@H]1C(=O)N2C(C(=O)O)=C(S[C@@H]3CN[C@H](C(=O)N4CCC5CNCC54CO)C3)[C@H](C)[C@H]12 (single isomer, unassigned) [Example 561]

>  <MEASUREMENT_NAME>
MIC

>  <UNIT_ABBREVIATION>
µg/mL

>  <OBSERVED_MEASUREMENT>
2

$$$$

Next:
Reported MIC for C[C@@H](NC(=O)Cn1cnnn1)[C@H]1C(=O)N2C(C(=O)O)=C(S[C@@H]3CN[C@H](C(=O)N4C[C@@H](O)[C@@H](N)C4)C3)[C@H](C)[C@H]12 [Example 431] was 0.5

###

# Test system: carbapenem sensitive Escherichia coli
# TEST: MIC by broth micro-dilution (CLSI), carbapenem sensitive E. coli
# Assay type: cell-based
# EXPERIMENTAL_CONDITIONS: ESBL −ve E. coli ATCC25922
MEASUREMENT_NAME: MIC (µg/mL)
I only need the number, in µg/mL, no unit after it.

>  <COMPOUND>
C[C@@H](NC(=O)Cn1cnnn1)[C@H]1C(=O)N2C(C(=O)O)=C(S[C@@H]3CN[C@H](C(=O)N4CC5CCCNC5C4)C3)[C@H](C)[C@H]12 (single isomer, unassigned)

>  <MIC / µg/mL>
0.125

$$$$
>  <COMPOUND>
C[C@@H](NC(=O)Cn1cnnn1)[C@H]1C(=O)N2C(C(=O)O)=C(S[C@@H]3CN[C@H](C(=O)N4CC5CNC5C4)C3)[C@H](C)[C@H]12 (some centres unmarked)

>  <MIC / µg/mL>
0.25

$$$$

Reported MIC for C[C@@H](NC(=O)Cn1cnnn1)[C@H]1C(=O)N2C(C(=O)O)=C(S[C@@H]3CN[C@H](C(=O)N4CCC5NCCCC5C4)C3)[C@H](C)[C@H]12 (some centres unmarked) was 0.25

Reported MIC for C[C@@H](NC(=O)Cn1cnnn1)[C@H]1C(=O)N2C(C(=O)O)=C(S[C@@H]3CN[C@H](C(=O)N4CCC5CNCC5C4)C3)[C@H](C)[C@H]12 (single isomer, unassigned) was 0.125

Reported MIC for C[C@@H](NC(=O)Cn1cnnn1)[C@H]1C(=O)N2C(C(=O)O)=C(S[C@@H]3CN[C@H](C(=O)N4CCC5CNCC54)C3)[C@H](C)[C@H]12 (single isomer, unassigned) was 1

Reported MIC for C[C@@H](NC(=O)Cn1cnnn1)[C@H]1C(=O)N2C(C(=O)O)=C(S[C@@H]3CN[C@H](C(=O)N4CCC(N)(CO)C4)C3)[C@H](C)[C@H]12 (single isomer, unassigned) was 0.25

Reported MIC for C[C@@H](NC(=O)Cn1cnnn1)[C@H]1C(=O)N2C(C(=O)O)=C(S[C@@H]3CN[C@H](C(=O)N4CCC(N)C(F)C4)C3)[C@H](C)[C@H]12 (some centres unmarked) was 0.25

Reported MIC for C[C@@H](NC(=O)Cn1cnnn1)[C@H]1C(=O)N2C(C(=O)O)=C(S[C@@H]3CN[C@H](C(=O)N4CC5CC(CO)NC5C4)C3)[C@H](C)[C@H]12 (single isomer, unassigned) was 0.25

###

# Tested on: carbapenemase producing K. pneumoniae
# TEST: MIC by broth micro-dilution (CLSI), carbapenemase producing K. pneumoniae
# Assay type: cell-based, Klebsiella pneumoniae
# EXPERIMENTAL_CONDITIONS: Klebsiella pneumoniae, ATCCBAA1705, KPC-2 K. pneumoniae ATCC BAA-1705; read-out: MIC
Entries whose MIC is below 8 µg/mL take Yes; entries at or above 8 µg/mL take No.

>  <COMPOUND>
C[C@@H](NC(=O)CN(C)C)[C@H]1C(=O)N2C(C(=O)O)=C(S[C@@H]3CN[C@H](C(=O)N4CCNCC4)C3)[C@H](C)[C@H]12 [Example 182]

>  <ASSAY_TARGET>
carbapenemase producing K. pneumoniae

>  <DISCRETE_LABEL>
No

$$$$
>  <COMPOUND>
C[C@@H](NC(=O)Cn1cnnn1)[C@H]1C(=O)N2C(C(=O)O)=C(S[C@@H]3CN[C@H](C(=O)N4CCC5NCCCC54)C3)[C@H](C)[C@H]12 (single isomer, unassigned) [Example 468]

>  <ASSAY_TARGET>
carbapenemase producing K. pneumoniae

>  <DISCRETE_LABEL>
Yes

$$$$
>  <COMPOUND>
C[C@@H](NC(=O)[C@H](N)Cc1ccccc1)[C@H]1C(=O)N2C(C(=O)O)=C(S[C@@H]3CN[C@H](C(=O)N(C)C)C3)[C@H](C)[C@H]12 [Example 72]

>  <ASSAY_TARGET>
carbapenemase producing K. pneumoniae

>  <DISCRETE_LABEL>
No

$$$$

Please check: MIC for C[C@@H](NS(=O)(=O)C(F)(F)F)[C@H]1C(=O)N2C(C(=O)O)=C(S[C@@H]3CN[C@H](C(=O)N4CC[C@@H](N)C4)C3)[C@H](C)[C@H]12 [Example 204] , strictly under 8 µg/mL or not? No

Please check: MIC for C[C@@H](NC(=O)Cn1cnnn1)[C@H]1C(=O)N2C(C(=O)O)=C(S[C@@H]3CN[C@H](C(=O)N4CCC5CN(C(=N)N)CCC54)C3)[C@H](C)[C@H]12 (single isomer, unassigned) [Example 559] , strictly under 8 µg/mL or not? Yes

###

MIC reference
# Test system: carbapenemase producing K. pneumoniae
# TEST: MIC by broth micro-dilution (CLSI), carbapenemase producing K. pneumoniae
# Type: cell-based, Klebsiella pneumoniae
# EXPERIMENTAL_CONDITIONS: Klebsiella pneumoniae, ATCCBAA1705, KPC-2 K. pneumoniae ATCC BAA-1705; read-out: MIC
I only need the number, in µg/mL, no unit after it.

Known MIC results, listed for orientation:
>  <COMPOUND>
C[C@@H](NC(=O)C(F)F)[C@H]1C(=O)N2C(C(=O)O)=C(S[C@@H]3CN[C@H](CNC(=O)[C@H]4CC[C@@H](N)C4)C3)[C@H](C)[C@H]12

>  <MIC, µg/mL>
16

$$$$
>  <COMPOUND>
C[C@@H](NC(=O)Cn1cnnn1)[C@H]1C(=O)N2C(C(=O)O)=C(S[C@@H]3CN[C@H](C(=O)N4CCC5(CC4)CC(F)(F)CN5)C3)[C@H](C)[C@H]12

>  <MIC, µg/mL>
4

$$$$
>  <COMPOUND>
CNCC(=O)N[C@H](C)[C@H]1C(=O)N2C(C(=O)O)=C(S[C@@H]3CN[C@H](C(=O)N4CC5CC4CN5)C3)[C@H](C)[C@H]12 (some centres unmarked)

>  <MIC, µg/mL>
4

$$$$
>  <COMPOUND>
C[C@@H](NC(=O)Cn1cnnn1)[C@H]1C(=O)N2C(C(=O)O)=C(S[C@@H]3CN[C@H](C(=O)N4CCC(n5nccn5)CC4)C3)[C@H](C)[C@H]12

>  <MIC, µg/mL>
8

$$$$
>  <COMPOUND>
C[C@@H](NC(=O)Cn1nnnc1C(F)(F)F)[C@H]1C(=O)N2C(C(=O)O)=C(S[C@@H]3CN[C@H](C(=O)N(C)C)C3)[C@H](C)[C@H]12

>  <MIC, µg/mL>
16

$$$$

Reported MIC for C[C@@H](NC(=O)Cn1cnnn1)[C@H]1C(=O)N2C(C(=O)O)=C(S[C@@H]3CN[C@H](C(=O)N4C[C@H](N)[C@@H](O)[C@H]4CO)C3)[C@H](C)[C@H]12 was 1

Reported MIC for CNCC(=O)N[C@H](C)[C@H]1C(=O)N2C(C(=O)O)=C(S[C@@H]3CN[C@H](CNC(=O)[C@@H]4CSCN4)C3)[C@H](C)[C@H]12 was 2

Reported MIC for CNCC(=O)N[C@H](C)[C@H]1C(=O)N2C(C(=O)O)=C(SC[C@@H]3C[C@H](NS(N)(=O)=O)CN3)[C@H](C)[C@H]12 was 4

Reported MIC for C[C@@H](NC(=O)Cn1cnnn1)[C@H]1C(=O)N2C(C(=O)O)=C(SC3CN(C(=N)N)C3)[C@H](C)[C@H]12 was 1

Reported MIC for COCc1cn([C@H](C)[C@H]2C(=O)N3C(C(=O)O)=C(S[C@@H]4CN[C@H](C(=O)N5CC[C@@H](N)C5)C4)[C@H](C)[C@H]23)nn1 was 8

Reported MIC for CNCC(=O)N[C@H](C)[C@H]1C(=O)N2C(C(=O)O)=C(S[C@@H]3CN[C@H](Cn4cc(CN)nn4)C3)[C@H](C)[C@H]12 was 64
